conditions: human gut metagenome, 24 h, 2 µM; also: call rule not given here
measure: Bacterial Biotransformation

These solved cases illustrate the format of a correct answer.
{"molecule": "CNCCC(Oc1ccc(C(F)(F)F)cc1)c1ccccc1 (centres undefined) [FLUOXETINE]", "Bacterial Biotransformation": "Compound NOT metabolized"}
{"molecule": "OC(CCN1CCCCC1)(c1ccccc1)C1CCCCC1 (centres undefined) [TRIHEXYPHENIDYL]", "Bacterial Biotransformation": "Compound NOT metabolized"}
{"molecule": "O=C1NCC2(CCN(CCc3ccccc3)CC2)O1 [FENSPIRIDE]", "Bacterial Biotransformation": "Compound NOT metabolized"}
{"molecule": "NC(=O)N1c2ccccc2CC(=O)c2ccccc21 [OXCARBAZEPINE]", "Bacterial Biotransformation": "Compound NOT metabolized"}
{"molecule": "CN(C(=O)CN(CCO)CC(=O)N(C)C(C)(C)Cc1ccccc1)C(C)(C)Cc1ccccc1 [OXETHAZAINE]", "Bacterial Biotransformation": "Compound metabolized"}
{"molecule": "CCc1nc(N)nc(N)c1-c1ccc(Cl)cc1 [PYRIMETHAMINE]", "Bacterial Biotransformation": "Compound NOT metabolized"}

IN: Find the measured Bacterial Biotransformation of CN(C)CCc1c[nH]c2ccc(Cn3cncn3)cc12.O=C(O)c1ccccc1 [RIZATRIPTAN BENZOATE] and report it.
OUT: Compound NOT metabolized

IN: Find the measured Bacterial Biotransformation of CCC1(c2ccc(N)cc2)CCC(=O)NC1=O (centres undefined) [AMINOGLUTETHIMIDE] and report it.
OUT: Compound NOT metabolized

IN: Find the measured Bacterial Biotransformation of CC(C)(Oc1ccc(CCNC(=O)c2ccc(Cl)cc2)cc1)C(=O)O [BEZAFIBRATE] and report it.
OUT: Compound metabolized
